Measured values drawn from patent US6943191B1 for this set.

# System: panel of approximately 60 different human tumor cell lines
# Assay Info: National Cancer Institute drug screen, mean-graph parameters
# Format: cell-based
# Condition Summary: Homo sapiens, 48 h; Table 9; mean over cell line panel, two days exposure; read-out: Tumor cell Mean log GI50 (converted)
# Experimental: Compounds of the present invention also have been subjected to the drug screening procedure employed by the National Cancer Institute for the screening of drugs having possible anticancer utility. […] To produce data for the mean-graph format, a compound concentration that produced a target level response was calculated for each cell line. Three different response parameters were evaluated. […]
Define the label as 1.0 when GI50 is strictly less than 5 µM and as 0.0 in all remaining cases.

1. O=C1C=CC(=O)C(CNc2ccc(C(=O)OC34CC5CC(CC(C5)C3)C4)cc2)=C1 1.0
2. COC(=O)c1ccc(NCC2=CC(=O)c3ccccc3C2=O)cc1 0.0
3. O=C1C=CC(=O)C(CNc2ccc(C(=O)OC34CC5CC(CC(C5)C3)C4)cc2)=C1Br 0.0
4. COC(=O)c1ccc(NCc2cc(O)c3ccccc3c2O)cc1 0.0
5. CC(C)(C)OC(=O)c1ccc(NCC2=CC(=O)C=CC2=O)cc1 0.0

Is GI50 of COC(=O)c1ccc(NCC2=C(Br)C(=O)C=CC2=O)cc1Cl strictly below 5 µM? 0.0

Similarly, COC(=O)c1ccc(NCC2=CC(=O)C=CC2=O)cc1 ? 1.0
